Assign EC50 to each entry below.
# Target under test: F508delCFTR (Homo sapiens, UniProt P13569, DEL508-508)
# Construct: expressed in transfected cells; host or cells: CFBE41o- (human lung derived epithelial cell line), doxycycline-inducible expression
# Sequence (P13569 with tags, fused parts or gaps DEL508-508): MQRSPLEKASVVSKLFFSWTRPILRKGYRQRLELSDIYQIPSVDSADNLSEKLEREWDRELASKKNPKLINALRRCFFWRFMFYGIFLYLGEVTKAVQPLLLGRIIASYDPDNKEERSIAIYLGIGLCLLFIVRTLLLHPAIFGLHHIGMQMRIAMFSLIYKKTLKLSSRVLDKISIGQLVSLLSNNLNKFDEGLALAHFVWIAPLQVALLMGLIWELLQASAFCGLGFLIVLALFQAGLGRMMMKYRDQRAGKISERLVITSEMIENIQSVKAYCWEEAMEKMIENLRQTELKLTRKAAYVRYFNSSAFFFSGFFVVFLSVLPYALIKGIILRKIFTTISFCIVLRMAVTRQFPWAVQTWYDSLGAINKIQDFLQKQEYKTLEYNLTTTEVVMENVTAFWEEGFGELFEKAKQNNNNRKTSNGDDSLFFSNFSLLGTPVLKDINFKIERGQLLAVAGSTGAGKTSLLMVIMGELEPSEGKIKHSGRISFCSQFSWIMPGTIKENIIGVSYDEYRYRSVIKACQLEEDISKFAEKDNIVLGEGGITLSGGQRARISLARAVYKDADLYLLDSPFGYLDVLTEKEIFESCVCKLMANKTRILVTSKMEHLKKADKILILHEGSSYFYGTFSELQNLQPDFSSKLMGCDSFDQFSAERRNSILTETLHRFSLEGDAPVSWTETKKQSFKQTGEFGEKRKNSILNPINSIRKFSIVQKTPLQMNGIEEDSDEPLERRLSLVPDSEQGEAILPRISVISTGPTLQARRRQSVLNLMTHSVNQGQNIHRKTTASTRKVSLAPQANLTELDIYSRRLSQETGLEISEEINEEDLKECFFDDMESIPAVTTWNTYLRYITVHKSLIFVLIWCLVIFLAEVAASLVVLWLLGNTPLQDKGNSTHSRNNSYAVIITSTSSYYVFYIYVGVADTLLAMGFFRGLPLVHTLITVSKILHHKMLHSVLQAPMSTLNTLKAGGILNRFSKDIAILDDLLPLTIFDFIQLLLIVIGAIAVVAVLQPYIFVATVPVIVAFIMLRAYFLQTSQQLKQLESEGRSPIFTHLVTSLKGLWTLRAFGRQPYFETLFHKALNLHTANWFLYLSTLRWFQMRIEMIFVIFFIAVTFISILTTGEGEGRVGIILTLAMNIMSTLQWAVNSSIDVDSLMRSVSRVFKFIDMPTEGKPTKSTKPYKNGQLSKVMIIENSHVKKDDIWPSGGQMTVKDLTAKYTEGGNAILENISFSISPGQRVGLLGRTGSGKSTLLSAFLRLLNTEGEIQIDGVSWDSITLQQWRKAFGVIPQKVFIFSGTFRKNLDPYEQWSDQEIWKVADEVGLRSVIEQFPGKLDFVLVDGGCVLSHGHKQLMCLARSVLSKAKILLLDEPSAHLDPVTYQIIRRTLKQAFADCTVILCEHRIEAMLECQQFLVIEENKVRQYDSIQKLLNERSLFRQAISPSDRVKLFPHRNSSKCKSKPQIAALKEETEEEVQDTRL
# Protocol notes: Cell Surface Expression-Horse Radish Peroxidase (CSE-HRP) assay
# Assay type: cell-based
# Recorded conditions: CFBE41o-F508delCFTR-HRP cells; test compound without co-corrector; 18-24 hours at 33° C.; read-out: EC50 (without co-corrector)

Requested read-out: EC50. Entry: `COc1ncc(-c2ccccc2F)cc1CO[C@H]1[C@H](C(C)(C)C)[C@@H](C(=O)O)N(C(=O)OC(C)C)[C@H]1c1ccccc1`
< 1 µM

Can you handle `COc1ccc(Br)cc1CO[C@H]1[C@H](C(C)(C)C)[C@@H](C(=O)O)N(C(=O)[C@@H]2CCC[C@@H](OC)C2)[C@H]1c1ccccc1` next?
1 to 10 µM

Can you handle `COc1ncc(C2CCC2)cc1CO[C@H]1[C@H](C(C)(C)C)[C@@H](C(=O)O)N(C(=O)[C@@H]2CCCO2)[C@H]1c1cccnc1OC(C)C` next?
1 to 10 µM

Can you handle `COc1ccc(C(F)(F)F)cc1[C@@H](C)CO[C@H]1[C@H](C(C)(C)C)[C@@H](C(=O)O)N(C(=O)[C@@H]2CCCCO2)[C@H]1c1ccccc1C` next?
< 1 µM

Can you handle `COc1ncc(C(F)(F)F)cc1CO[C@H]1[C@H](C(C)(C)C)[C@@H](C(=O)O)N(C(=O)C2CCCCC2)[C@H]1c1cccc2c1OC(C)(C)C2` next?
< 1 µM

Can you handle `CCc1ccccc1[C@H]1[C@@H](OCc2ccc(C(F)(F)F)cc2OC)[C@H](C(C)(C)C)[C@@H](C(=O)O)N1C(=O)[C@@H]1CCCCO1` next?
< 1 µM

Can you handle `COc1ncc(C(F)(F)F)cc1CO[C@H]1[C@H](C(C)(C)C)[C@@H](C(=O)O)N(C(=O)OC(C)C)[C@H]1c1cccc(Br)c1` next?
1 to 10 µM

Can you handle `COc1ncc(-c2ccc(C)cc2F)cc1CO[C@H]1[C@H](C(C)(C)C)[C@@H](C(=O)O)N(C(=O)OC(C)C)[C@H]1c1ccccc1` next?
< 1 µM

Can you handle `COc1ncc(C(F)(F)F)cc1CO[C@H]1[C@H](C(C)(C)C)[C@@H](C(=O)O)N(C(=O)[C@H]2CCCCO2)[C@H]1c1ccccc1C(C)C` next?
1 to 10 µM

Can you handle Cc1cc(C(F)(F)F)cc(OC2[C@@H](c3ccccc3)N(C(=O)C3CCCCC3)[C@@H](C(=O)O)[C@@H]2C(C)(C)C)n1 (mixture of isomers) next?
1 to 10 µM

Can you handle COc1ccc(Cl)cc1COC1[C@@H](c2ccccc2)N(C(=O)C2CCCCC2)[C@@H](C(=O)O)[C@@H]1C(C)(C)C (mixture of isomers) next?
1 to 10 µM

Can you handle `COc1ncc(C2CCC2)cc1CO[C@H]1[C@H](C(C)(C)C)[C@@H](C(=O)O)N(C(=O)OC(C)C)[C@H]1c1ccccc1C(C)C` next?
1 to 10 µM

Can you handle `COc1ncc(C(F)(F)F)cc1CO[C@H]1[C@H](C(C)(C)C)[C@@H](C(=O)O)N(C(=O)OC(C)C)[C@H]1c1ccccc1F` next?
1 to 10 µM

Can you handle `COc1ncc(C(F)(F)F)cc1CO[C@H]1[C@H](C(C)(C)C)[C@@H](C(=O)O)N(C(=O)[C@@H]2CCCCO2)[C@H]1c1ccccc1-c1ccc(F)cc1` next?
1 to 10 µM

Can you handle `COc1nc2ccccc2cc1CO[C@H]1[C@H](C(C)(C)C)[C@@H](C(=O)O)N(C(=O)[C@@H]2CCCO2)[C@H]1c1ccnn1C(C)C` next?
> 10 µM

Can you handle `COc1ncc(C2CCC2)cc1CO[C@H]1[C@H](C(C)(C)C)[C@@H](C(=O)O)N(C(=O)OC(C)C)[C@H]1c1cccnc1OC(C)C` next?
1 to 10 µM

Can you handle `COc1ncc(C(F)(F)F)cc1CO[C@H]1[C@H](C(C)(C)C)[C@@H](C(=O)O)N(C(=O)[C@@H]2CCCO2)[C@H]1c1ccccc1C` next?
1 to 10 µM

Can you handle COc1ccc(C(F)(F)F)cc1C(CO[C@H]1[C@H](C(C)(C)C)[C@@H](C(=O)O)N(C(=O)[C@@H]2CCCCO2)[C@H]1c1ccccc1C)OC (some centres unmarked) next?
1 to 10 µM

Can you handle `COc1ncc(C2CCC2)cc1CO[C@H]1[C@H](C(C)(C)C)[C@@H](C(=O)O)N(C(=O)C2CCOCC2)[C@H]1c1cccnc1OC(C)C` next?
1 to 10 µM

Can you handle `COc1nc2ccccc2cc1CO[C@H]1[C@H](C(C)(C)C)[C@@H](C(=O)O)N(C(=O)[C@@H]2CCCCO2)[C@H]1c1ccccc1C` next?
1 to 10 µM

Can you handle `COc1ncc(C(F)(F)F)cc1CO[C@H]1[C@H](C(C)(C)C)[C@@H](C(=O)O)N(C(=O)[C@@H]2CCCCO2)[C@H]1c1ccccc1-c1ccccc1F` next?
1 to 10 µM

Can you handle `COc1ncc(C2CCC2)cc1CO[C@H]1[C@H](C(C)(C)C)[C@@H](C(=O)O)N(C(=O)[C@@H]2CCCO2)[C@H]1c1ccccc1C(C)C` next?
< 1 µM

Can you handle COc1ccc(C(F)(F)F)cc1COC1[C@@H](c2ccccc2)N(C(=O)C2CCCCC2)[C@@H](C(=O)NS(C)(=O)=O)[C@@H]1C(C)(C)C (mixture of isomers) next?
1 to 10 µM
